Value source: patent US20240270758A1

The following compounds are shown together with reported pIC50 values.
# System: AGS cells (KRAS^G12D mutation)
# PROTOCOL SUMMARY: Cell proliferation inhibition assay (3D, CellTiter-Glo), AGS
# Format: cell-based, human
# EXPERIMENTAL SETUP: Homo sapiens, AGS, 120 h, 3D cell model, 5 days
# Experimental: […] AsPC-1 is an endogenous human pancreatic cancer cell containing KRAS^G12D mutation, which is cultured in RPMI-1640 medium containing 10% FBS; AGS human gastric cancer cell line containing KRAS^G12D mutation, cultured in F-12K medium containing 10% FBS. […] Luminescence chemiluminescence value was read on a microplate reader, and the cell proliferation inhibition ratio was calculated, IR (%)=(RLU control-RLU compound)/(RLU control-RLU blank)×100%. […]
The scale used: pIC50 is minus the common logarithm of the concentration in molar units.

In the examples that follow, each entry is paired with its recorded pIC50.
C#Cc1cccc2cc(O)cc(-c3ncc4c(N5C[C@H]6CC[C@@H](C5)N6)nc(OCC56CC(=C)CN5CCC65CC5)nc4c3F)c12 (stereo partly drawn) [Example Z106]
8.34
C#Cc1cccc2cc(O)cc(-c3ncc4c(N5C[C@H]6CC[C@@H](C5)N6)nc(OCC56CC(=C)CN5CC5(CC5)C6)nc4c3F)c12 (stereo partly drawn) [Example Z23]
8.33
C#Cc1c(F)ccc2cc(O)cc(-c3ncc4c(N5C[C@H]6CC[C@@H](C5)N6)nc(OCC56CC(=C)CN5CC(=C)C6)nc4c3F)c12 [Example Z194]
8.85
C#Cc1cccc2cc(O)cc(-c3ncc4c(N5C[C@H]6CC[C@@H](C5)N6)nc(OCC56CCCN5CC(=C(C)C)C6)nc4c3F)c12 (stereo partly drawn) [Example Z14]
7.56
C#Cc1c(F)ccc2cc(O)cc(-c3ncc4c(N5C[C@H]6CC[C@@H](C5)N6)nc(OC[C@]56CCCN5CC(=C)C6)nc4c3F)c12 (single isomer, unassigned) [Example Z13]
7.89

--- query ---
In: Identify pIC50 associated with the compound C#Cc1c(F)ccc2cc(O)cc(-c3ncc4c(N5C[C@H]6CC[C@@H](C5)N6)nc(OC[C@@]56CCCN5CC(=C)C6)nc4c3F)c12 [Example Z12]
Out: 8.55
